Provenance of the data: ChEMBL document CHEMBL1201862

Test system: CAKI-1
Experiment: NCI tumour cell line growth inhibition, 48 h
Calls of active or inactive are those of the source. Cut-off read from the data, not from the text of the source: active = GI50 up to about 1.1 µM and inactive = higher.
Can you answer with just one of these options? T (active), F (inactive)

# molecule, category.label
data = [
    ("CCN(CC)CCCC(C)NC(=O)c1cc(-c2nccn2C)nc2ccc(C)cc12 (stereo not given)", "F"),
    ("COc1ccc(OC)c([N+](=O)[O-])c1-c1nc2sc(C)cn2c1/C=N/N=C(N)N", "F"),
    ("CCOC(=O)NNC(=O)C1CSC(c2ccccc2)N1C(C)=O (stereo not given)", "F"),
    ("COc1cc(C2c3cc4c(cc3OC(N3CCCC3)C2C)OCO4)cc(OC)c1OC (stereo not given)", "T"),
    ("N#CC1(C#N)C(=O)c2ccncc2C1=O", "F"),
    ("OCCN=C1c2ccccc2C2C(c3ccccc31)C1c3ccccc3C(=NCCO)c3ccccc3C21 (stereo not given)", "F"),
]

Lookup: Short answer needed: outcome of this test for O=C1CCc2ccc(O)c(c2)Oc2ccc(cc2)C(Sc2ccccc2)CCO1 (stereo not given) ?
Found: F

Lookup: Assay result, entry CCOC(OC1=C(C#N)CCC1)C(C)[Se]c1ccccc1 (stereo not given) — outcome?
Found: F

Lookup: What call does the record list for CCc1n[nH]c(=O)n1CCCCCCCCCCCCn1c(CC)n[nH]c1=O ?
Found: F

Lookup: Can you look up the reported call for CCN(CC)C(=S)/N=C(\SC(=S)N(CC)CC)c1ccccc1 for me?
Found: F
